Experiment: AUCinfinity in CD1 mouse at 3 mg/kg, iv measured upto 7 hrs by LC-MS/MS analysis
Format: ADME, organism-based
Design: route intravenous, dose 3 mg/kg, time <=7
Conditions: in vivo
OBSERVABLE: AUC(0-inf) (ng·h/mL)
# number only, unit ng·h/mL dropped from output

Retrieve AUC(0-inf) measured for "[2H]C([2H])(Oc1cc(F)cc(F)c1C([2H])([2H])C([2H])([2H])[2H])C(=O)N(Cc1nnc(N)o1)Cc1ccc(S(N)(=O)=O)cc1F" and print it.
62100

* * *

Experiment: physchem
Settings: 1-octanol/phosphate buffer, pH 7.4
Field: logD at 2 h, 25 µM. Provide a value for each of the compounds that follow.
The reply should be a number, written without any unit.

Retrieve logD at 2 h, 25 µM measured for "N#Cc1ccc(CN(Cc2nnc(N)o2)C(=O)CSc2ccccc2CC(F)(F)F)c(F)c1" and print it.
2.3

Retrieve logD at 2 h, 25 µM measured for "CCc1c(F)cc(F)cc1OCC(=O)N(Cc1nnc(N)o1)Cc1ccc(C#N)cc1F" and print it.
2.7

Retrieve logD at 2 h, 25 µM measured for "Nc1nnc(CN(Cc2ccc(S(N)(=O)=O)cc2F)C(=O)COc2cc(F)cc(F)c2C2CC2)o1" and print it.
2.1

Retrieve logD at 2 h, 25 µM measured for "N#Cc1cc(F)c(CN(Cc2nnc(N)o2)C(=O)CSc2cc(F)cc(F)c2Cl)c(F)c1" and print it.
2.4

Retrieve logD at 2 h, 25 µM measured for "N#Cc1ccc(CN(Cc2nnc(N)o2)C(=O)CSc2ccccc2Cl)cn1" and print it.
1.4

* * *

Assay: Volume of distribution at steady state in CD1 mouse at 3 mg/kg, iv measured upto 7 hrs by LC-MS/MS analysis
Format: ADME, organism-based
Details: in vivo, read-out: Vdss
OBSERVABLE: Vd (L/kg)
# number only, unit L/kg dropped from output

Retrieve Vd measured for "[2H]C([2H])(Oc1cc(F)cc(F)c1C([2H])([2H])C([2H])([2H])[2H])C(=O)N(Cc1nnc(N)o1)Cc1ccc(S(N)(=O)=O)cc1F" and print it.
0.34

* * *

Assay: AUCinfinity in CD1 mouse at 5 mg/kg, po pretreated with ABT followed by compound treatment and measured upto 7 hrs by LC-MS/MS analysis
Format: ADME, organism-based
Parameters: route oral, dose 5 mg/kg, time <=7
Details: in vivo
OBSERVABLE: AUC(0-inf) (ng·h/mL)
# number only, unit ng·h/mL dropped from output

Retrieve AUC(0-inf) measured for "[2H]C([2H])(Oc1cc(F)cc(F)c1C([2H])([2H])C([2H])([2H])[2H])C(=O)N(Cc1nnc(N)o1)Cc1ccc(S(N)(=O)=O)cc1F" and print it.
7690

* * *

Experiment: physchem
Settings: 1-octanol/phosphate buffer, pH 7.4
OBSERVABLE: logD at 2 h, 25 µM

Retrieve logD at 2 h, 25 µM measured for "N#Cc1ccc(CN(Cc2nnc(N)o2)C(=O)COc2ccccc2Cl)cn1" and print it.
1

Retrieve logD at 2 h, 25 µM measured for "N#Cc1ccc(CN(Cc2nnc(N)o2)C(=O)COc2cc(F)cc(F)c2C2CC2)cn1" and print it.
2.2

Retrieve logD at 2 h, 25 µM measured for "CCc1c(F)cc(F)cc1OCC(=O)N(Cc1nnc(N)o1)Cc1ccc(S(N)(=O)=O)cc1F" and print it.
2.1

Retrieve logD at 2 h, 25 µM measured for "N#Cc1ccc(CN(Cc2nnc(N)o2)C(=O)CCc2ccccc2)cn1" and print it.
1.5

Retrieve logD at 2 h, 25 µM measured for "N#Cc1ccc(CN(Cc2nnc(N)o2)C(=O)CSc2ccccc2Cl)cc1" and print it.
2

Retrieve logD at 2 h, 25 µM measured for "CCc1c(F)cc(F)cc1OCC(=O)N(Cc1ccc(C#N)cc1)Cc1nnc(N)o1" and print it.
2.8

Retrieve logD at 2 h, 25 µM measured for "[2H]C([2H])(Oc1cc(F)cc(F)c1C([2H])([2H])C([2H])([2H])[2H])C(=O)N(Cc1nnc(N)o1)Cc1ccc(S(N)(=O)=O)cc1F" and print it.
2

Retrieve logD at 2 h, 25 µM measured for "N#Cc1ccc(CN(Cc2nnc(N)o2)C(=O)CSc2ccccc2OC(F)(F)F)c(F)c1" and print it.
1.6

Retrieve logD at 2 h, 25 µM measured for "[2H]C([2H])(Oc1cc(F)cc(F)c1C([2H])([2H])C([2H])([2H])[2H])C(=O)N(Cc1nnc(N)o1)Cc1ccc(C#N)cc1F" and print it.
3
